Overview of reported %Inh across a group of compounds:
Tested on: IGF1R;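 note: KINOMEscan kinase panel screen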
settings: concentration: 1 μM, replicates: in singlicate; n = 1
quantity.name: %Inh (%)

> print(dat)
                                    compound  test.target  quantity.name  unit.text  value.observed
 1  COc1cccc(CNC(=O)NC2CCN(c3ccnc(Nc4ccc(F)cc4)n3)C2)c1 (stereo not drawn) [GSK1379723]        IGF1R           %Inh          %               4
 2  COC(=O)c1cccc(NC(=O)NC2CCN(c3ccnc(Nc4ccc(F)cc4)n3)C2)c1 (stereo not drawn) [GSK1379725]        IGF1R           %Inh          %               0
 3   COc1ccc(-c2coc3ccc(-c4nnc(C)o4)cc23)cc1        IGF1R           %Inh          %              12
 4  Nc1ncnc2occ(-c3ccc4c(c3)CCN4C(=O)Cc3cc(F)ccc3F)c12 [GSK2645446]        IGF1R           %Inh          %               0
 5  Cl.Cl.Cl.N#Cc1ccc(CCNc2nccc(-c3cccc(CN4CCNCC4)c3)n2)cc1 [GSK2137462]        IGF1R           %Inh          %              11
 6  COC(=O)c1cccc(NC(=O)NC2CCN(c3ccnc(Nc4ccc(OC)cc4)n3)C2)c1 (stereo not drawn) [GSK1379746]        IGF1R           %Inh          %               1
 7  CNC(=O)c1ccc(C)c(-n2c(C)cc(OCc3ccc(F)cc3F)c(Br)c2=O)c1        IGF1R           %Inh          %               0
 8  COc1ccc(CSc2nnc(-c3ccc4nccn4c3)o2)cc1C(F)(F)F        IGF1R           %Inh          %               0
 9  COc1cccc(NC(=O)Nc2ccc(C)c(-c3ccc(C(=O)Nc4ccncc4)cc3)c2)c1 [GSK1398474]        IGF1R           %Inh          %              12
10  COc1cccc(C2=C(Nc3cc(Cl)c(O)c(Cl)c3)C(=O)NC2=O)c1 [SB-390767]        IGF1R           %Inh          %               5
11  O=C1NC(=O)C(c2ccc(Cl)cc2)=C1Nc1ccc(O)cc1 [SB-340867]        IGF1R           %Inh          %               0
12    CCn1c(-c2ccccc2)nc2cnccc21 [SB-733416]        IGF1R           %Inh          %               7
13  Cc1cnc(N)c(/C=C/c2cncc(C(=O)NCCc3ccc(Cl)cc3Cl)c2)c1.Cl [GSK190937]        IGF1R           %Inh          %               8
14  O=C(Nc1n[nH]c2nc(-c3cccs3)c(Br)cc12)C1CC1 [SB-735297]        IGF1R           %Inh          %               0
15  CC(=O)c1c(C)c2cnc(Nc3ccn(C)n3)nc2n(C2CCCC2)c1=O        IGF1R           %Inh          %               1
